# System: UO-31
# experimentSummary: NCI tumour cell line growth inhibition, 48 h
Active and inactive are the calls of the source. No stated cut-off is given here; in the data, active = GI50 up to about 1.1 µM and inactive = higher. Where a SMILES comes first, the peptide text is derived from it. [ ]: non-standard residue; d: D form. The star is where a group is joined. Phe(4-NO2) = N[CH](Cc1ccc([N+](=O)[O-])cc1)C(=O)O; Boc = CC(C)(C)OC(=O)*; OtBu = CC(C)(C)O*
Outcomes: TRUE (active), FALSE (inactive)

1) O=C(Nc1ccc(Cl)cc1Cl)C1C(=O)OC2(CCCCC2)OC1=O	FALSE
2) O=[N+]([O-])c1cc2c(cc1/C=N/n1c(CO)nc3ccccc31)OCO2	FALSE
3) COc1cc(/C=C/c2cccnc2)cc(OC)c1OC	FALSE
4) CC(C)CCCC(C)[C@H]1CCC2[C@H]3C(CC[C@@]21C)[C@@]1(C)CCC=C[C@]12C[C@@H]2[C@@H]3O (some centres undefined)	FALSE
5) O=C(/C=C/c1cccs1)c1ccccc1Cl	TRUE
6) CC(=O)OCC(OC(C)=O)C(OC(C)=O)C(OC(C)=O)C(C=NN(C(C)=O)S(=O)(=O)c1ccc(/C=C2\NC(=O)N(C)C2=O)cc1)OC(C)=O (centres undefined)	FALSE
7) C/C=C/COC(=O)CO[N+](=O)[O-]	FALSE
8) CCOC(=O)C1(C#N)OC(=O)c2cnccc21 (centres undefined)	FALSE
9) CCCCCC(=O)Nc1[nH]cnc1C(N)=O	FALSE
10) CS(=O)(=O)OC1CCC2(C#N)CCC1C2=O (centres undefined)	FALSE
11) CC(=O)NC(CCC(=O)OC(C)(C)C)C(=O)NC(CCC(=O)OC(C)(C)C)C(=O)NC(Cc1ccc([N+](=O)[O-])cc1)C(=O)NC(CCCCNC(=O)OC(C)(C)C)C(=O)NC(CCCCNC(=O)OC(C)(C)C)C(=O)NCC(=O)O (centres undefined) (Ac-E(OtBu)E(OtBu)[Phe(4-NO2)]K(Boc)K(Boc)G-OH; configuration not given here)	FALSE
12) C#CCn1c(=O)c2ccccc2n(CC#C)c1=O	FALSE
13) COC(=O)CC1CC2(C(=O)OC)c3[nH]c4ccccc4c3CCN2C1=O (centres undefined)	FALSE
14) CC(C)C(Br)CC/C(CBr)=C(\Cl)CCl (centres undefined)	FALSE
15) CCOC(=O)c1cc(C(=O)O)c(=O)n2c1[nH]c1ccccc12	FALSE
16) COC(=O)[C@@H]1[C@H](O)[C@H](C)[C@H](O)[C@@](C)(O)/C=C\C=C(\C)C(=O)Nc2c(C)c(OC(C)=O)c3c(c2O)C(=O)C(C)=C2OCOC(=C23)/C(C)=C/[C@@](C)(O)[C@H](O)[C@@H](C)[C@H]1OC(C)=O	FALSE
17) O=C1CCCC2=C1CC1=C(CCCC1=O)N2c1ccc([N+](=O)[O-])cc1	FALSE
18) Cc1ccnc(NC(=S)Nc2cccc(Cl)c2)c1	FALSE
19) O=C1C=Cc2c(-c3ccccc3)oc3cccc1c23	FALSE
